Tested on: U-2 OS
assay details: relative cell count vs DMSO (cell painting) (fraction of DMSO control); higher = more cells remaining (less cytotoxic)
applied conditions: 5 µM; 24 h

>  <mol smiles>
Cc1cc2c(C(C)C)c(O)c(O)c(C=O)c2c(O)c1-c1c(C)cc2c(C(C)C)c(O)c(O)c(C=O)c2c1O

>  <target system>
U-2 OS

>  <relative cell count>
1.02

$$$$
>  <mol smiles>
CC(C)C[C@H](NC(=O)[C@H](Cc1ccccc1)NC(=O)c1cnccn1)B(O)O

>  <target system>
U-2 OS

>  <relative cell count>
0.129

$$$$
>  <mol smiles>
C=CC(=O)N1CCC[C@@H](n2nc(-c3ccc(Oc4ccccc4)cc3)c3c(N)ncnc32)C1

>  <target system>
U-2 OS

>  <relative cell count>
1.11

$$$$
>  <mol smiles>
COc1cc(OC)c2ccccc2c1C=C1C(=O)NC(=S)NC1=O

>  <target system>
U-2 OS

>  <relative cell count>
0.428

$$$$
>  <mol smiles>
c1ccc(-c2noc(NC3CCCC3)n2)cc1

>  <target system>
U-2 OS

>  <relative cell count>
1.05

$$$$
>  <mol smiles>
C=CC(=O)N1CCN(c2ncnc3c(F)c(-c4c(O)cccc4F)c(Cl)cc23)CC1

>  <target system>
U-2 OS

>  <relative cell count>
0.555

$$$$
>  <mol smiles>
CC[C@]1(O)C[C@@H]2CN(CCc3c([nH]c4ccccc34)[C@@](C(=O)OC)(c3cc4c(cc3OC)N(C)[C@H]3[C@@](O)(C(=O)OC)[C@H](OC(C)=O)[C@]5(CC)C=CCN6CC[C@]43[C@@H]65)C2)C1

>  <target system>
U-2 OS

>  <relative cell count>
0.223

$$$$
>  <mol smiles>
CCN(CC)Cc1ccc2cc(COC(=O)Nc3ccc(C(=O)NO)cc3)ccc2c1.Cl

>  <target system>
U-2 OS

>  <relative cell count>
0.424

$$$$

---

Test system: U-2 OS
assay details: cell painting activity score (Mahalanobis distance from DMSO wells); higher = stronger morphological phenotype
applied conditions: 1.25 µM; 24 h
Label scheme for cell painting activity score: bottom end: < 5; midrange: ≥ 5 and < 10; top end: ≥ 10

>  <molecule>
C[C@@H]1C[C@@H]([C@H](O)CC2CC(=O)NC(=O)C2)C(=O)[C@@H](C)C1

>  <classification>
midrange

$$$$
>  <molecule>
COc1cc2c(c(OC)c1OC)-c1ccc(OC)c(=O)cc1[C@@H](NC(C)=O)CC2

>  <classification>
top end

$$$$
>  <molecule>
Cc1onc(C(=O)N2CCN(C(c3ccc(Cl)cc3)c3ccc(Cl)cc3)CC2)c1[N+](=O)[O-]

>  <classification>
midrange

$$$$
>  <molecule>
Cc1ccc(S(=O)(=O)/C=C/C#N)cc1

>  <classification>
top end

$$$$
>  <molecule>
Cn1c(=O)n(-c2ccc(C(C)(C)C#N)cc2)c2c3cc(-c4cnc5ccccc5c4)ccc3ncc21

>  <classification>
top end

$$$$
>  <molecule>
Nc1nccc2c1ncn2[C@@H]1C=C(CO)[C@@H](O)[C@H]1O

>  <classification>
top end

$$$$
>  <molecule>
O=C1CC(Sc2nnnn2-c2ccccc2)C(=O)N1c1ccc([N+](=O)[O-])cc1 (centres undefined)

>  <classification>
bottom end

$$$$
>  <molecule>
Nc1nc(-c2ccccc2)[n+](-c2ccccc2)s1

>  <classification>
bottom end

$$$$
>  <molecule>
O=S1(=O)CC(Sc2cccs2)c2ccccc21 (centres undefined)

>  <classification>
bottom end

$$$$
